Where do these numbers come from? They come from PubChem BioAssay (NCI).

Tested on: IGROV1 ovarian
Test: NCI-60 one-dose screen, 48 h
Details: 10 µM unless noted
This is part of a sample that, as a whole, favours compounds with a hit. Of some 83,000 tested, about 20% had one in any assay. Active and inactive are the calls of the source. The calls were made as follows: active = growth percent below 10; inactive = the rest.
Use one of these outcomes when replying: active, inactive

Study these solved cases before continuing.
O=c1[nH]c(-c2ccncc2)nc2sc3c(c12)CCCCCC3 :: inactive
COC(=O)[C@@H]1CCCN1C(=O)[C@@H]1CCCN1C(=O)[C@@H](Cc1c[nH]c2ccccc12)NC(=S)Nc1cc(C(F)(F)F)cc(C(F)(F)F)c1 :: inactive

Input: State the result this test recorded for `COc1ccc(-c2[nH]ncc2Nc2cc(OC)c(OC)c(OC)c2)cc1` .
Output: inactive

Input: Now the compound `CN([N-]C(=O)CC(=O)[N-]N(C)C(=S)c1ccccc1)C(=S)c1ccccc1.[Cu+2]`
Output: active

Input: For `NS(=O)(=O)c1cc(Br)c2c(c1)S(=O)(=O)NCN2` then?
Output: inactive

Input: Subsequent entry: `O=C(Nc1ccc(F)cc1)c1ccc(C(=O)Nc2ccc(F)cc2)cc1`
Output: inactive

Input: Lookup `Cn1c2c(cc(S(=O)(=O)c3ccccc3)c1=O)CCc1c-2cnn1-c1ccccc1Cl`
Output: inactive
